Assay: Aqueous stability of the compound in phosphate buffer at pH 6.5 assessed as compound half life measured after 24 hrs by UPLC analysis
Type: physicochemical
Conditions: buffer, pH 6.5, 24 h, 24 h
Reported t1/2 values follow for various compounds
READOUT_LABEL: t1/2 (h)

>>> observed("COC(=O)N[C@H](C(=O)N[C@@H](Cc1ccccc1)[C@H](CN(Cc1ccc(-c2ccccn2)cc1)NC(=O)[C@@H](NC(=O)OC)C(C)(C)C)OC(=O)OC(OC(=O)[C@@H](N)C(C)C)C(C)C)C(C)(C)C (stereo in doubt; 3s)")
4.9
>>> observed("COC(=O)N[C@H](C(=O)N[C@@H](Cc1ccccc1)[C@H](CN(Cc1ccc(-c2ccccn2)cc1)NC(=O)[C@@H](NC(=O)OC)C(C)(C)C)OC(=O)OC(OC(=O)[C@@H](NC(=O)[C@H](N)C(C)C)C(C)C)C(C)C)C(C)(C)C (stereo in doubt; 6h)")
9.2
>>> observed("COC(=O)N[C@H](C(=O)N[C@@H](Cc1ccccc1)[C@H](CN(Cc1ccc(-c2ccccn2)cc1)NC(=O)[C@@H](NC(=O)OC)C(C)(C)C)OC(=O)OC(OC(=O)[C@@H](N)CC(C)C)C(C)C)C(C)(C)C (stereo in doubt; 3u)")
5.9
>>> observed("COC(=O)N[C@H](C(=O)N[C@@H](Cc1ccccc1)[C@H](CN(Cc1ccc(-c2ccccn2)cc1)NC(=O)[C@@H](NC(=O)OC)C(C)(C)C)OC(=O)OC(OC(=O)[C@H](C(C)C)N(C)C)C(C)C)C(C)(C)C (stereo in doubt; 5h)")
334.3

---

Catalogue of t1/2 readings, one per entry.
Assay: Aqueous stability of the compound in phosphate buffer at pH 6.5 assessed as compound half life measured after 24 hrs by UPLC analysis
Assay type: physicochemical
Settings: buffer, pH 6.5, 24 h, 24 h
READOUT_LABEL: t1/2 (h)

>>> observed("COC(=O)N[C@H](C(=O)N[C@@H](Cc1ccccc1)[C@H](CN(Cc1ccc(-c2ccccn2)cc1)NC(=O)[C@@H](NC(=O)OC)C(C)(C)C)OC(=O)OC(OC(=O)[C@@H](N)Cc1ccccc1)C(C)C)C(C)(C)C (stereo in doubt; 3w)")
12.7
>>> observed("COC(=O)N[C@H](C(=O)N[C@@H](Cc1ccccc1)[C@H](CN(Cc1ccc(-c2ccccn2)cc1)NC(=O)[C@@H](NC(=O)OC)C(C)(C)C)OC(=O)OC(OC(=O)C[C@H](N)Cc1cc(F)c(F)cc1F)C(C)C)C(C)(C)C (stereo in doubt; 3ac)")
7.4
>>> observed("COC(=O)N[C@H](C(=O)N[C@@H](Cc1ccccc1)[C@H](CN(Cc1ccc(-c2ccccn2)cc1)NC(=O)[C@@H](NC(=O)OC)C(C)(C)C)OC(=O)OC(OC(=O)[C@@H](N)CC(C)C)C(C)C)C(C)(C)C (stereo in doubt; 3t)")
12
>>> observed("CCC(C)C(OC(=O)O[C@@H](CN(Cc1ccc(-c2ccccn2)cc1)NC(=O)[C@@H](NC(=O)OC)C(C)(C)C)[C@H](Cc1ccccc1)NC(=O)[C@@H](NC(=O)OC)C(C)(C)C)OC(=O)[C@@H](N)C(C)C (stereo in doubt; 4k)")
13.4
>>> observed("COC(=O)N[C@H](C(=O)N[C@@H](Cc1ccccc1)[C@H](CN(Cc1ccc(-c2ccccn2)cc1)NC(=O)[C@@H](NC(=O)OC)C(C)(C)C)OC(=O)OC(OC(=O)[C@@H](N)C(C)C)C(C)C)C(C)(C)C (stereo in doubt; 3r)")
10.6
